System: Herpes simplex II virus
Assay: Back titration plaque assay: PFU counts at stated amounts of compound under test and arginine
Type: cell-based, Herpes simplex II virus (BSC cells)
Conditions: compound 500 μg/ml; arginine 5.0 μg/ml
A collection of molecules and their measured P.F.U. Count

molecule	study_system	P.F.U. Count
CC(CN)CC[C@H](N)C(=O)O (some centres unmarked)	Herpes simplex II virus	0
CC(CCN)CC(N)C(=O)O (centres unmarked)	Herpes simplex II virus	239
CC(N)CCCC(N)C(=O)O (centres unmarked)	Herpes simplex II virus	0
NCCCCCC(N)C(=O)O (centres unmarked) [drawing 17]	Herpes simplex II virus	0
CC(N)CCCCC(N)C(=O)O (centres unmarked) [drawing 18]	Herpes simplex II virus	0
